Attribution: the supplement of paper PMC10567573

protein stability index by entry:
B1: CDC34 (parent)
chain: GGYFKARLKFPIDYPYSPPAFRFL

Variants of: B1
Assay: protein stability index of a GFP-peptide fusion (GPS, HEK-293T) (PSI 1-6); higher = more stable;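 also: lentivirally expressed fusions sorted by FACS into six bins by GFP to DsRed ratio, PSI derived from sequencing read proportions per bin multiplied by bin number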
Settings: c terminus: a fixed tail appended
Please reply with the number alone, leaving off any unit.

Please review the following examples before continuing.
{"columns": ["chainSequence", "quantity", "recordedResult"],
 "data": [
  ["GGYRKARLKFPIDYPYSPPAFRFL [F4R]", "protein stability index", 2.76],
  ["GGYFKARLKFPIDYPYSPPAFRFT [L24T]", "protein stability index", 3.35],
  ["GGYFKARLKFPIDYPYSPPEFRFL [A20E]", "protein stability index", 3.68]
]}

## Input Suppose we examine the variant GGYEKARLKFPIDYPYSPPAFRFL [F4E] ; what protein stability index value has been reported?
## Output 2.79

## Input Suppose we examine the variant GGYFKARLKFPIDYPYSPMAFRFL [P19M] ; what protein stability index value has been reported?
## Output 3.23

## Input Suppose we examine the variant GGYFKARLKFTIDYPYSPPAFRFL [P11T] ; what protein stability index value has been reported?
## Output 2.28

## Input Suppose we examine the variant GGYFKARVKFPIDYPYSPPAFRFL [L8V] ; what protein stability index value has been reported?
## Output 2.53

## Input Suppose we examine the variant GGYFKARLKFPIDYYYSPPAFRFL [P15Y] ; what protein stability index value has been reported?
## Output 2.56

## Input Suppose we examine the variant GGYFKARLKFPGDYPYSPPAFRFL [I12G] ; what protein stability index value has been reported?
## Output 3.83

## Input Suppose we examine the variant GLYFKARLKFPIDYPYSPPAFRFL [G2L] ; what protein stability index value has been reported?
## Output 2.2

## Input Suppose we examine the variant GGYFKARLKFPIDLPYSPPAFRFL [Y14L] ; what protein stability index value has been reported?
## Output 2.75

## Input Suppose we examine the variant GGYFKLRLKFPIDYPYSPPAFRFL [A6L] ; what protein stability index value has been reported?
## Output 2.36

## Input Suppose we examine the variant GGYFKARLKFPIDYPYSPPAQRFL [F21Q] ; what protein stability index value has been reported?
## Output 3.14

## Input Suppose we examine the variant MGYFKARLKFPIDYPYSPPAFRFL [G1M] ; what protein stability index value has been reported?
## Output 3.53

## Input Suppose we examine the variant GGYFKARLKFSIDYPYSPPAFRFL [P11S] ; what protein stability index value has been reported?
## Output 3.37

## Input Suppose we examine the variant GGYFKARLKFPIQYPYSPPAFRFL [D13Q] ; what protein stability index value has been reported?
## Output 2.73

## Input Suppose we examine the variant GGYFKARLKFPIDYAYSPPAFRFL [P15A] ; what protein stability index value has been reported?
## Output 3.19

## Input Suppose we examine the variant GGYSKARLKFPIDYPYSPPAFRFL [F4S] ; what protein stability index value has been reported?
## Output 3.07

## Input Suppose we examine the variant GGYFKARLKFPIDYPYSPVAFRFL [P19V] ; what protein stability index value has been reported?
## Output 2.35

## Input Suppose we examine the variant GGYFKARRKFPIDYPYSPPAFRFL [L8R] ; what protein stability index value has been reported?
## Output 1.25

## Input Suppose we examine the variant GHYFKARLKFPIDYPYSPPAFRFL [G2H] ; what protein stability index value has been reported?
## Output 3.54

## Input Suppose we examine the variant HGYFKARLKFPIDYPYSPPAFRFL [G1H] ; what protein stability index value has been reported?
## Output 2.91

## Input Suppose we examine the variant GGYFKARLKFPIDKPYSPPAFRFL [Y14K] ; what protein stability index value has been reported?
## Output 2.75

## Input Suppose we examine the variant GGYFKARLKMPIDYPYSPPAFRFL [F10M] ; what protein stability index value has been reported?
## Output 2.53
